Experiment: Tolerability in CD-1 mice, plasma chemistry markers (Example 18)
Assay type: in vivo
Conditions: male CD-1 mice, 50 mg/kg s.c. twice a week (total of 9 treatments), day 34
Procedure: CD-1 mice were treated with modified oligonucleotides selected from studies described above and evaluated for changes in the levels of various plasma chemistry markers. Groups of four male CD-1 mice at 5-6 weeks of age (obtained from Charles River) were injected subcutaneously twice a week for four weeks (for a total of 9 treatments) with 50 mg/kg of modified oligonucleotides. One group of male CD-1 mice was injected with PBS. […]
Strand notation (5' to 3'): a small letter for the sugar, then the base; units joined by * are phosphorothioate-linked, units joined directly phosphodiester-linked; [ ] holds rarer units or linkages, { } end groups; capitals alone tell only the bases. k = constrained ethyl (cEt); [5mC] = 5-methylcytosine; d = 2'-deoxy (DNA)
measurementLabel: ALT (U/L)
Unit U/L implied. Number only.

The value of ALT measured for the substance 1076453 (GTAATATTGCAATCTG; 3-10-3 cEt gapmer, further chemistry not given here) [compound 1076453] turned out to be 56

The value of ALT measured for the substance 1074755 (k[5mC]*kA*k[5mC]*dT*dT*dT*dT*dA*d[5mC]*dA*dT*dT*dA*kG*kG*kA; antisense) [compound 1074755] turned out to be 88

The value of ALT measured for the substance 1076481 (k[5mC]*kT*kA*dA*dG*dT*dA*dA*dG*dG*dT*dT*dT*k[5mC]*k[5mC]*k[5mC]) [compound 1076481] turned out to be 71

The value of ALT measured for the substance 958499 (ATTAGAGTATGTGGCA; 3-10-3 cEt gapmer, further chemistry not given here) [compound 958499] turned out to be 79
